- settings: in acetone, 318.15 K
value kind: solubility (mole fraction)
Output spec: single numeric token, no unit.

Would you kindly share the measured solubility (mole fraction) for `CC(C)N1C(=O)N(c2ccccc2)CSC1=NC(C)(C)C` ?
0.134

---

- settings: in n-butanol, 298.15 K
value kind: solubility (mole fraction)
Output spec: single numeric token, no unit.

Would you kindly share the measured solubility (mole fraction) for `CC(C)N1C(=O)N(c2ccccc2)CSC1=NC(C)(C)C` ?
0.0281

---

- settings: in ethanol, 293.15 K
value kind: solubility (mole fraction)
Output spec: single numeric token, no unit.

Would you kindly share the measured solubility (mole fraction) for `CC(C)N1C(=O)N(c2ccccc2)CSC1=NC(C)(C)C` ?
0.0146
